- Test Protocol: Half life in wild-type FVB/N mouse at 20 mg/kg, iv by LC-MS/MS analysis
- Type: ADME, organism-based
- Set-up: dose 20 mg/kg, route intravenous
- Measurement Conditions: in vivo
Observable: half-life (min)

> print(dat)
                         structure.notation  quantitative.result
1  COc1ccc2[nH]cc(CCN(C)C)c2c1.O=C(O)C(=O)O                   15

----------
- Test Protocol: Cmax in CYP2D6-humanized transgenic FVB/N mouse at 10 mg/kg, ip by LC-MS/MS analysis
- Type: ADME, organism-based
- Parameters: dose 10 mg/kg, route intraperitoneal
- Measurement Conditions: in vivo
Observable: Cmax (µM)

> print(dat)
                         structure.notation  quantitative.result
1  COc1ccc2[nH]cc(CCN(C)C)c2c1.O=C(O)C(=O)O                 8.93

----------
- Test Protocol: Cmax in wild-type FVB/N mouse at 20 mg/kg, ip by LC-MS/MS analysis
- Type: ADME, organism-based
- Design: dose 20 mg/kg, route intraperitoneal
- Measurement Conditions: in vivo
Observable: Cmax (µM)

> print(dat)
                         structure.notation  quantitative.result
1  COc1ccc2[nH]cc(CCN(C)C)c2c1.O=C(O)C(=O)O                 15.8

----------
- Test Protocol: Volume of distribution at steady state in CYP2D6-humanized transgenic FVB/N mouse at 2 mg/kg, iv by LC-MS/MS analysis
- Type: ADME, organism-based
- Set-up: dose 2 mg/kg, route intravenous
- Measurement Conditions: in vivo, read-out: Vdss
Observable: Vd (L/kg)

> print(dat)
                         structure.notation  quantitative.result
1  COc1ccc2[nH]cc(CCN(C)C)c2c1.O=C(O)C(=O)O                 2.55

----------
- Test Protocol: Volume of distribution at steady state in wild-type FVB/N mouse at 2 mg/kg, iv by LC-MS/MS analysis
- Format: ADME, organism-based
- Parameters: dose 2 mg/kg, route intravenous
- Measurement Conditions: in vivo, read-out: Vdss
Observable: Vd

> print(dat)
                         structure.notation     result
1  COc1ccc2[nH]cc(CCN(C)C)c2c1.O=C(O)C(=O)O  2.27 L/kg

----------
- Test Protocol: Tmax in CYP2D6-humanized transgenic FVB/N mouse at 2 mg/kg, ip by LC-MS/MS analysis
- Type: ADME, organism-based
- Set-up: dose 2 mg/kg, route intraperitoneal
- Measurement Conditions: in vivo
Observable: Tmax

> print(dat)
                         structure.notation  result
1  COc1ccc2[nH]cc(CCN(C)C)c2c1.O=C(O)C(=O)O   3 min

----------
- Test Protocol: Volume of distribution at steady state in wild-type FVB/N mouse at 10 mg/kg, iv by LC-MS/MS analysis
- Type: ADME, organism-based
- Set-up: dose 10 mg/kg, route intravenous
- Measurement Conditions: in vivo, read-out: Vdss
Observable: Vd (L/kg)

> print(dat)
                         structure.notation  observable  quantitative.result
1  COc1ccc2[nH]cc(CCN(C)C)c2c1.O=C(O)C(=O)O          Vd                 2.08

----------
- Test Protocol: Ratio of drug level in brain to serum in wild-type FVB/N mouse at 20 mg/kg, ip by LC-MS/MS analysis
- Assay type: ADME, organism-based
- Set-up: dose 20 mg/kg, route intraperitoneal
Observable: Kp

> print(dat)
                         structure.notation  quantitative.result
1  COc1ccc2[nH]cc(CCN(C)C)c2c1.O=C(O)C(=O)O                  2.7

----------
- Test Protocol: Half life in CYP2D6-humanized transgenic FVB/N mouse at 20 mg/kg, iv by LC-MS/MS analysis
- Format: ADME, organism-based
- Set-up: dose 20 mg/kg, route intravenous
- Measurement Conditions: in vivo
Observable: half-life (min)

> print(dat)
                         structure.notation  quantitative.result
1  COc1ccc2[nH]cc(CCN(C)C)c2c1.O=C(O)C(=O)O                   12

----------
- Test Protocol: Bioavailability in CYP2D6-humanized transgenic FVB/N mouse at 2 mg/kg, ip by LC-MS/MS analysis
- Assay type: ADME, organism-based
- Measurement Conditions: in vivo
Observable: bioavailability (%)

> print(dat)
                         structure.notation       observable  quantitative.result
1  COc1ccc2[nH]cc(CCN(C)C)c2c1.O=C(O)C(=O)O  bioavailability                 42.5

----------
- Test Protocol: Clearance in CYP2D6-humanized transgenic FVB/N mouse at 20 mg/kg, iv by LC-MS/MS analysis
- Assay type: ADME, organism-based
- Parameters: dose 20 mg/kg, route intravenous
- Measurement Conditions: in vivo
Observable: clearance (mL/min/kg)

> print(dat)
                         structure.notation  observable  quantitative.result
1  COc1ccc2[nH]cc(CCN(C)C)c2c1.O=C(O)C(=O)O   clearance                  110

----------
- Test Protocol: Tmax in CYP2D6-humanized transgenic FVB/N mouse at 20 mg/kg, ip by LC-MS/MS analysis
- Format: ADME, organism-based
- Set-up: dose 20 mg/kg, route intraperitoneal
- Measurement Conditions: in vivo
Observable: Tmax (min)

> print(dat)
                         structure.notation  observable  measurement.unit  quantitative.result
1  COc1ccc2[nH]cc(CCN(C)C)c2c1.O=C(O)C(=O)O        Tmax               min                    5

----------
- Test Protocol: Bioavailability in CYP2D6-humanized transgenic FVB/N mouse at 10 mg/kg, ip by LC-MS/MS analysis
- Format: ADME, organism-based
- Measurement Conditions: in vivo
Observable: bioavailability (%)

> print(dat)
                         structure.notation       observable  quantitative.result
1  COc1ccc2[nH]cc(CCN(C)C)c2c1.O=C(O)C(=O)O  bioavailability                   61

----------
- Test Protocol: Clearance in wild-type FVB/N mouse at 10 mg/kg, iv by LC-MS/MS analysis
- Type: ADME, organism-based
- Set-up: dose 10 mg/kg, route intravenous
- Measurement Conditions: in vivo
Observable: clearance (mL/min/kg)

> print(dat)
                         structure.notation  quantitative.result
1  COc1ccc2[nH]cc(CCN(C)C)c2c1.O=C(O)C(=O)O                   94

----------
- Test Protocol: Ratio of drug level in brain to serum in wild-type FVB/N mouse at 10 mg/kg, ip by LC-MS/MS analysis
- Format: ADME, organism-based
- Set-up: dose 10 mg/kg, route intraperitoneal
Observable: Kp

> print(dat)
                         structure.notation  quantitative.result
1  COc1ccc2[nH]cc(CCN(C)C)c2c1.O=C(O)C(=O)O                  1.8

----------
- Test system: Serum
- Test Protocol: Drug uptake in CYP2D6-humanized transgenic FVB/N mouse serum by LC-MS/MS analysis
- Type: ADME, cell-free
- Measurement Conditions: read-out: Drug uptake
Observable: concentration (nM)

> print(dat)
                         structure.notation  quantitative.result
1  COc1ccc2[nH]cc(CCN(C)C)c2c1.O=C(O)C(=O)O                  4.1

----------
- Test Protocol: Bioavailability in wild-type FVB/N mouse at 10 mg/kg, ip by LC-MS/MS analysis
- Assay type: ADME, organism-based
- Measurement Conditions: in vivo
Observable: bioavailability (%)

> print(dat)
                         structure.notation       observable  quantitative.result
1  COc1ccc2[nH]cc(CCN(C)C)c2c1.O=C(O)C(=O)O  bioavailability                 47.3

----------
- Test Protocol: Ratio of drug level in brain to serum in CYP2D6-humanized transgenic FVB/N mouse at 10 mg/kg, ip by LC-MS/MS analysis
- Format: ADME, organism-based
- Parameters: dose 10 mg/kg, route intraperitoneal
Observable: Kp

> print(dat)
                         structure.notation  quantitative.result
1  COc1ccc2[nH]cc(CCN(C)C)c2c1.O=C(O)C(=O)O                  1.2

----------
- Test Protocol: Clearance in wild-type FVB/N mouse at 20 mg/kg, iv by LC-MS/MS analysis
- Type: ADME, organism-based
- Parameters: dose 20 mg/kg, route intravenous
- Measurement Conditions: in vivo
Observable: clearance

> print(dat)
                         structure.notation         result
1  COc1ccc2[nH]cc(CCN(C)C)c2c1.O=C(O)C(=O)O  100 mL/min/kg

Data provenance is ChEMBL document CHEMBL3525944.
